The origin of these recorded values is patent US20180339059A1.

Biological target: T1, hOX40-muFc (human; mouse, UniProt P43489 29-216)
T1 construct: range 1-216; Expressed in HEK293, purified on Protein A; also called recombinant human OX40; not shown: mouse IgG1-Fc (muFc) domain, residue 98 to residue 324 of P01868
T1 sequence (looked up): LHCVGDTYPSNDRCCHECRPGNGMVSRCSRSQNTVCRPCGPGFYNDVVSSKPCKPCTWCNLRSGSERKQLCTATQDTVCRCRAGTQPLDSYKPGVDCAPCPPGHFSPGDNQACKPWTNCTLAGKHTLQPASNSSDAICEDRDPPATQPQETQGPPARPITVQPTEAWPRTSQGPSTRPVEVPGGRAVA
Assay: SPR, BIAcore X100; antibody captured by anti-human Fc on CM5 chip, OX40-muFc as analyte, 1:1 model
measured.metric: kon (M⁻¹ s⁻¹)
Respond numerically; units are M⁻¹ s⁻¹ and should not be typed.

Examples from the recorded data:
INSERT INTO assay_data (binder, readout_value) VALUES
  ('anti-OX40 21#VHnew-L80 mAb (antibody, IgG4, V domains shown, Formatted as IgG according to Embodiment 3 (IgG4); not shown: human immunoglobulin gamma4 (IgG4) constant region, P01861; human immunoglobulin kappa light chain constant region, P01834) VH: QVQLQQSGPGLVKPSQTLSLTCAISGDSVSSNGVSWDWIRQSPSRGLEWLGRTYYRSKWYNEYAVSVENRITINPDTSKNQFSLQLNSVTPEDTAIYFCVRNDYFFDLWGRGTLVTVSS VL: EIVLTQSPATLSLSPGERATLSCRASQSVGSYLAWYQQKPGQAPRLLIYDASNRATGIPARFSGSGSGTDFTLTISSLEPEDFAVYYCQQRSNWPPGYTFGQGTKVEIK', 33300),
  ('anti-OX40 21#H96-L80 mAb (antibody, V domains shown, Formatted as IgG according to Embodiment 3 (IgG4); also called H96-L80 IgG4; not shown: human immunoglobulin gamma4 (IgG4) constant region, P01861; human immunoglobulin kappa light chain constant region, P01834) VH: QVQLQQSGPGLVKPSQTLSLTCAISGDSVSSNSVSWDWIRQSPSRGLEWLGRTYYRSKWYNEYAVSVESRITINPDTSKNQFSLQLNSVTPEDTAIYFCVRNDYFFDLWGRGTLVTVSS VL: EIVLTQSPATLSLSPGERATLSCRASQSVGSYLAWYQQKPGQAPRLLIYDASNRATGIPARFSGSGSGTDFTLTISSLEPEDFAVYYCQQRSNWPPGYTFGQGTKVEIK', 30000),
  ('O3 mAb (antibody, IgG4, V domains shown, IgG4, lambda; expressed in HEK293; also called 03 mAb; not shown: human immunoglobulin gamma4 (IgG4) constant region, P01861; human immunoglobulin lambda light chain constant region, A0M8Q6) VH: QVQLQQWGAGLLKPSETLSLTCGFNGEYFTDYFWTWVRQPPGEALEWLALIYWDDDERYSPSLKNRLIITKDISKNQVVLTMTHMEPADTGTYYCARWGGSLMNAFDVWGPGTMVTVSS VL: QSALIQPASVSGSPGQSITISCTGTSSDVGGYNYVSWYQRHPGKAPRLMIYDVTKRPSGVSNRFSGSKSGNTASLTISGLQAEDEADYYCSSYTSSSIAVFGGGTQLTVL', 284000);

Please find the next binder below.
QUERY: What value of measured kon is listed for O21 mAb (antibody, IgG4, V domains shown, also called 021 mAb; anti-OX40 21# mAb; not shown: human immunoglobulin gamma4 (IgG4) constant region, P01861; human immunoglobulin kappa light chain constant region, P01834) VH: QVQLQQSGPGLVKPSQTLSLTCAISGDSVSSNSVSWDWIRQSPSRGLEWLGRTYYRSKWYNEYAVSVESRITINPDTSKNQFSLQLNSVTPEDTAIYFCVRNNYFFDLWGRGTLVTVSS VL: EIVLTQSPATLSLSPGERATLSCRASQSVSSYLAWYQQKPGQAPRLLIYDASDRATGIPARFSGSGSGTDFTLTISSLEPEDFAVYYCQLRSNWPPGYTFGQGTKVEIK ?
RESULT: 41800
